Target: human serotonin transporter (Homo sapiens, UniProt P31645)
Conditions: 10 µM
inhibition listing for selected molecules.
Numeric answer plus unit only.

Recorded inhibition, per entry:
CCOc1ccc([C@@]23CCC(=O)C[C@@H]2N(C)CC3)cc1OC1CCCCC1 [Compound 23] : 77%
CCOc1ccc([C@@]23CCC(=O)C[C@@H]2N(C)CC3)cc1OCC1CC1 [Compound 24] : 91%

Using human serotonin transporter (Homo sapiens, UniProt P31645) as the test system, report measured inhibition of CCOc1ccc([C@@]23CCC(=O)C[C@@H]2N(C)CC3)cc1OCC [Compound 21] .
91%

Using human serotonin transporter (Homo sapiens, UniProt P31645) as the test system, report measured inhibition of CCOc1cc([C@@]23CCC(=O)C[C@@H]2N(C)CC3)ccc1OC(C)C [Compound 29] .
99%

====

Assay: Hepatocyte stability study
Type: in vitro ADME
Conditions: human hepatocytes, 1 μM, 37° C.; read-out: Qualified Clint
experimental_readout: hepatocyte CLint at 1 μM
Numeric answer plus unit only.

Provide hepatocyte CLint at 1 μM value for the following molecule: [2H]C([2H])([2H])Oc1cc([C@@]23CCC(=O)C[C@@H]2N(C)CC3)ccc1OC
21.1 µL/min/1e6 cells

====

Target: PDE-4A1A (Homo sapiens)
Construct: purchased Sigma SRP0262
Sequence (P27815 1-647 isoform P27815-4): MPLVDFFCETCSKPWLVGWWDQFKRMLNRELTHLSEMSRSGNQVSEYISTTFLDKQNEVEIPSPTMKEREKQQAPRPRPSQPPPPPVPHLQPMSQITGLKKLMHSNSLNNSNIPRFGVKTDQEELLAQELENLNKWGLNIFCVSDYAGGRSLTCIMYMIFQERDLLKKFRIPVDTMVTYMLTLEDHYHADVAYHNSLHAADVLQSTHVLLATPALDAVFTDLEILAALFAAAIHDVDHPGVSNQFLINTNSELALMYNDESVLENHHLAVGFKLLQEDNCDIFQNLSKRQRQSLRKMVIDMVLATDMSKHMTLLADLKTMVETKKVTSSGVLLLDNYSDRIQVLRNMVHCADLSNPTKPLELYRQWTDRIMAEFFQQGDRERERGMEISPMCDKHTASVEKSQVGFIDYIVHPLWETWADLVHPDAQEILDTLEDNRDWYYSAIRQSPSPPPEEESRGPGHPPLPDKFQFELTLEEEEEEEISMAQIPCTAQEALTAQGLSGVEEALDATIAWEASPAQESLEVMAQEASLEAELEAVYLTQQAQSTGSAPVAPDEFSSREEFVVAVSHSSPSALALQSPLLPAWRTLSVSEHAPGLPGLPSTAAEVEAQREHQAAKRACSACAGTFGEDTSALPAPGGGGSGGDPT
Test: PDE-41A assay (Compounds of Formula II), AMP-Glo
Type: biochemical
Description: PDE-41A assays were performed using the AMP-Glo™ Assay Kit, (Promega-V5012) human recombinant […] (Sigma, SRP0262) according to recommended protocols. […]
experimental_readout: inhibition at 30 µM (%)
Please give a number only; it is taken to be in %.

CCC(=O)O[C@@H]1CC[C@@]2(c3ccc(OC)c(OC)c3)CCN(C)[C@H]2C1 : 92
COc1ccc([C@@]23CC[C@@H](OC(=O)CCCC(=O)O)C[C@@H]2N(C)CC3)cc1OC : 40
COc1ccc([C@@]23CC[C@@H](OC(=O)CCC(=O)O)C[C@@H]2N(C)CC3)cc1OC : 53

Now examine the next entry.
Provide inhibition at 30 µM value for the following molecule: COc1ccc([C@@]23CC[C@@H](OC(=O)C(C)C)C[C@@H]2N(C)CC3)cc1OC
95

====

Biological target: hSERT (Homo sapiens, UniProt P31645)
Construct: expressed in transfected cells
Sequence (P31645 whole entry): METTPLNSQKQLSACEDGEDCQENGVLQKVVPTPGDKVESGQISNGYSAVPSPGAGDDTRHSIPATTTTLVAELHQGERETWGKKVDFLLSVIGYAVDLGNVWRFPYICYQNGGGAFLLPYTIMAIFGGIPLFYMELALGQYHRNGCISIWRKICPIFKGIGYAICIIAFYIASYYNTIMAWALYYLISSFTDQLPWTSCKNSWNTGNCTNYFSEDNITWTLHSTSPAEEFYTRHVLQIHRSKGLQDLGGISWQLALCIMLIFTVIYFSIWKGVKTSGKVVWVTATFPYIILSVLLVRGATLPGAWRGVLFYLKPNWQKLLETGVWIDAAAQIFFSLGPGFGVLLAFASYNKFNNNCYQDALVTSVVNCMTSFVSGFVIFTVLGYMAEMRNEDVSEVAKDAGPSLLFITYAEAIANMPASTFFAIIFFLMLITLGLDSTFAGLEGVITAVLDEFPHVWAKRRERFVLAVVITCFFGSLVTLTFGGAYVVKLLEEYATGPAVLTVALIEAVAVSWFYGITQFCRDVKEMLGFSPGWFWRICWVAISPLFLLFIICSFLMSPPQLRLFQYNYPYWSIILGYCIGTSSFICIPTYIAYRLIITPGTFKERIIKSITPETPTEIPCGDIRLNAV
Test: SERT assay (Compounds of Formula II), transporter uptake assay kit
Assay type: cell-based
experimental_readout: inhibition at 1 µM (%)
Please give a number only; it is taken to be in %.

Recorded inhibition at 1 µM, per entry:
COc1ccc([C@@]23C=C[C@@H](OC(=O)CCCC(=O)O)C[C@@H]2N(C)CC3)cc1OC : 67
COc1ccc([C@@]23CC[C@@H](OC(=O)c4ccc[nH]4)C[C@@H]2N(C)CC3)cc1OC : 99
CCC(=O)O[C@@H]1C=C[C@@]2(c3ccc(OC)c(OC)c3)CCN(C)[C@H]2C1 : 98

Provide inhibition at 1 µM value for the following compound: COc1ccc([C@@]23C=C[C@@H](OC(=O)CCC(=O)O)C[C@@H]2N(C)CC3)cc1OC
78

====

inhibition listing for selected compounds.
Biological target: human serotonin transporter (Homo sapiens, UniProt P31645);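 also: Read-out: uptake of tritium-labelled serotonin, measured by scintillation counting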
Conditions: 10 µM
Please give a number only; it is taken to be in %.

Recorded inhibition, per entry:
CCOc1ccc([C@@]23CCC(=O)C[C@@H]2N(C)CC3)cc1SC [Compound 17] : 99
COc1ccc([C@@]23CCC(=O)C[C@@H]2N(C)CC3)cc1OC1CCCCC1 [Compound 14] : 59
CC(C)Oc1ccc([C@@]23CCC(=O)C[C@@H]2N(C)CC3)cc1O [Compound 18] : 86
C=CCOc1cc([C@@]23CCC(=O)C[C@@H]2N(C)CC3)ccc1OC [Compound 13] : 100

Using human serotonin transporter (Homo sapiens, UniProt P31645) as the test system, report measured inhibition of COc1cc([C@@]23CCC(=O)C[C@@H]2N(C)CC3)ccc1OC(C)C [Compound 19] .
99
